- target.of.assay: APN (Homo sapiens)
- Construct: purchased Sigma-Aldrich
- protocol.description: Kinetic assay (Lineweaver–Burk) on APN
- Assay type: biochemical
- particulars: APN treated with compound 5 mM
measurement.name: Vmax (mU/min)
Only the number, expressed in mU/min, is required.

O=c1c(O)c(-c2ccc(O)c(O)c2)oc2cc(O)cc(O)c12 | 0.197
C/C=C/[S@+]([O-])C[C@H](N)C(=O)O | 0.241
C=CCSSCC=C [DADS, diallyl disulfide] | 0.297
O=c1c(O)c(-c2ccc(O)cc2)oc2cc(O)cc(O)c12 | 0.248
C[S@+]([O-])C[C@H](N)C(=O)O | 0.199

Next up:
Item C=CCSSSCC=C [DATS, diallyl trisulfide] has what recorded Vmax?
0.249

---

- target.of.assay: aminopeptidase N (APN) (Homo sapiens, UniProt P15144)
- Construct: purchased Sigma-Aldrich
- Sequence (P15144 whole entry, species assumed): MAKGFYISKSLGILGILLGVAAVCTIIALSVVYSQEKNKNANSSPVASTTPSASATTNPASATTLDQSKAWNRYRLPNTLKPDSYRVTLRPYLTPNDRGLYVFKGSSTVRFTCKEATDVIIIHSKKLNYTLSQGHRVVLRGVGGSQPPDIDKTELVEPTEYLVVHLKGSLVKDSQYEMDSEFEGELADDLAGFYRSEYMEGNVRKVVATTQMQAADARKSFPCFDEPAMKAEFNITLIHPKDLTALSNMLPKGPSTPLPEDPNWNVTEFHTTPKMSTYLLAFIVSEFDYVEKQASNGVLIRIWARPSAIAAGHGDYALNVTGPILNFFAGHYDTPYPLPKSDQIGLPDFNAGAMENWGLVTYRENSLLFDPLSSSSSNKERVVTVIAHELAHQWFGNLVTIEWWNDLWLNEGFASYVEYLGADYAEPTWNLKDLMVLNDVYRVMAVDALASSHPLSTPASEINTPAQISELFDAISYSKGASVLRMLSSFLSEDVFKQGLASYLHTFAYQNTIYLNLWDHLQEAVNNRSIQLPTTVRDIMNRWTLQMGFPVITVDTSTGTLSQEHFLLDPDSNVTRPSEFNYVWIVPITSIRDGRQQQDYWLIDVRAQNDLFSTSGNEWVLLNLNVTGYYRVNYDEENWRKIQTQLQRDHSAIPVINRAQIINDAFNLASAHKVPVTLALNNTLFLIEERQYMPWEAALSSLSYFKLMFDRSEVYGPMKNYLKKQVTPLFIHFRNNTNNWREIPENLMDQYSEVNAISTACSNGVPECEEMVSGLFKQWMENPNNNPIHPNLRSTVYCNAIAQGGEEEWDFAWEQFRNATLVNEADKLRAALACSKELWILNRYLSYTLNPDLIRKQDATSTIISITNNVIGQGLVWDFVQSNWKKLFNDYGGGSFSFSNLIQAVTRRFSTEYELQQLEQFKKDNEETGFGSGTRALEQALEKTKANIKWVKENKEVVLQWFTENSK
- protocol.description: Aminopeptidase N (APN) enzyme activity assay with L-p-NA substrate
- Assay type: biochemical
- particulars: at the highest concentration
inhibition of APN in in vitro enzyme assay vs 30%: at or above is t, below is f.

Check the entry C=CCSSCC=C [DADS, diallyl disulfide] : does inhibition of APN in in vitro enzyme assay equal or exceed 30%?
f

Tell me whether inhibition of APN in in vitro enzyme assay is at least 30% here: C=CCSSSCC=C [DATS, diallyl trisulfide]
f

Could you verify whether the entry O=c1c(O)c(-c2ccc(O)c(O)c2)oc2cc(O)cc(O)c12 [QUE, quercetin] shows inhibition of APN in in vitro enzyme assay of no less than 30%?
t

Determine whether measured inhibition of APN in in vitro enzyme assay meets or exceeds 30% for C/C=C/[S@+]([O-])C[C@H](N)C(=O)O [IA, isoalliin]
f

Record C[S@+]([O-])C[C@H](N)C(=O)O [MT, methiin] ; criterion: inhibition of APN in in vitro enzyme assay no lower than 30%. Met?
t

hey, is inhibition of APN in in vitro enzyme assay for this one >= 30%? O=c1c(O)c(-c2ccc(O)cc2)oc2cc(O)cc(O)c12 [KAE, kaempferol]
f

---

- target.of.assay: PDE5 (Homo sapiens, UniProt O76074)
- protocol.description: Kinetic assay (Lineweaver–Burk) on PDE5
- Type: biochemical
- particulars: highest concentration; non-treated 1.039 mU/min = 1.0-fold
Below is a list of entries, each paired with its recorded Vmax value of PDE5, fold of non-treated group value.
All answers are understood in fold, so give the number only.

// known answers, use as guide
C/C=C/[S@+]([O-])C[C@H](N)C(=O)O | 0.51
C=CCSSSCC=C [DATS, diallyl trisulfide] | 0.43
O=c1c(O)c(-c2ccc(O)c(O)c2)oc2cc(O)cc(O)c12 | 0.19
C[S@+]([O-])C[C@H](N)C(=O)O | 0.47

Field: next compound
State the recorded Vmax value of PDE5, fold of non-treated group for this entry: C=CCSSCC=C [DADS, diallyl disulfide]
0.56

---

- target.of.assay: APN (Homo sapiens, UniProt P15144)
- Construct: purchased Sigma-Aldrich
- Sequence (P15144 whole entry, species assumed): as above
- protocol.description: Kinetic assay (Lineweaver–Burk) on APN
- Format: biochemical
- particulars: APN; read-out: Ki
This section presents molecules with their documented Ki values.
Report field: quantity (unit follows the number).

Take a look at these entries with their results.
O=c1c(O)c(-c2ccc(O)c(O)c2)oc2cc(O)cc(O)c12 | 13.2 mM
C/C=C/[S@+]([O-])C[C@H](N)C(=O)O | 33.1 mM
C=CCSSSCC=C [DATS, diallyl trisulfide] | 18.7 mM
C=CCSSCC=C [DADS, diallyl disulfide] | 65.7 mM
O=c1c(O)c(-c2ccc(O)cc2)oc2cc(O)cc(O)c12 | 11.9 mM

Bench note: what Ki did `C[S@+]([O-])C[C@H](N)C(=O)O` show?
13.4 mM

---

Kcat overview
- target.of.assay: APN (Homo sapiens)
- Construct: purchased Sigma-Aldrich
- protocol.description: Kinetic assay (Lineweaver–Burk) on APN
- Type: biochemical
- particulars: APN treated with compound 10 mM
Report only the number, with the unit s⁻¹ understood.

Answered cases to consult:
C[S@+]([O-])C[C@H](N)C(=O)O [MT, methiin] | 218.9
C/C=C/[S@+]([O-])C[C@H](N)C(=O)O [IA, isoalliin] | 275.8
C=CCSSCC=C [DADS, diallyl disulfide] | 364.9
C=CCSSSCC=C [DATS, diallyl trisulfide] | 285.9
O=c1c(O)c(-c2ccc(O)c(O)c2)oc2cc(O)cc(O)c12 [QUE, quercetin] | 212.3

Proceed to the following item.
So what's the measured Kcat for this one? O=c1c(O)c(-c2ccc(O)cc2)oc2cc(O)cc(O)c12 [KAE, kaempferol]
268.5

---

Catalogue of Kcat readings, one per entry.
- target.of.assay: PDE5 (Homo sapiens, UniProt O76074)
- protocol.description: Kinetic assay (Lineweaver–Burk) on PDE5;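 for Kcat: pure compound doses in mM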
- Type: biochemical
- Parameters: unit of the concentration uncertain
- particulars: PDE5 treated with compound 10 (unit uncertain)
- Protocol: Lineweaver–Burk plots were employed to analyze the inhibition of the target enzyme. […] These reactions were conducted in a total volume of 80 μL. by a previously described method. The Michaelis–Menten constant (Km) and maximal velocity (Vmax) were calculated using the x and y intercepts, respectively. […] Additionally, the Kik and Kiv inhibition constants were calculated using previously described methods.
Report as a plain number; the unit k s^−1 is understood.

Sample records with Kcat:
O=c1c(O)c(-c2ccc(O)cc2)oc2cc(O)cc(O)c12 [KAE, kaempferol] | 1228
C=CCSSCC=C [DADS, diallyl disulfide] | 4383
O=c1c(O)c(-c2ccc(O)c(O)c2)oc2cc(O)cc(O)c12 [QUE, quercetin] | 1478
C[S@+]([O-])C[C@H](N)C(=O)O [MT, methiin] | 3673
C=CCSSSCC=C [DATS, diallyl trisulfide] | 3371

Read the next record carefully.
Item C/C=C/[S@+]([O-])C[C@H](N)C(=O)O [IA, isoalliin] has what recorded Kcat?
4018

---

- target.of.assay: PDE5 (Homo sapiens)
measurement.name: pKi
The meaning of pKi here: minus log10 of the concentration in molar units.

C[S@+]([O-])C[C@H](N)C(=O)O | 1.67

Returns the measured pKi for the input molecule. Input: C=CCSSSCC=C [DATS, diallyl trisulfide]
2.12

---

- target.of.assay: PDE5 (Homo sapiens)
- protocol.description: Kinetic assay (Lineweaver–Burk) on PDE5
- Type: biochemical
- Set-up: unit of the concentration uncertain
- particulars: PDE5 treated with compound 10 (unit uncertain)
Cut-off 0.5 mU/min on Vmax, inclusive. At or above means TRUE; below means FALSE.

Would you please look over these solved cases?
O=c1c(O)c(-c2ccc(O)c(O)c2)oc2cc(O)cc(O)c12 [QUE, quercetin] | FALSE
C=CCSSCC=C [DADS, diallyl disulfide] | TRUE
O=c1c(O)c(-c2ccc(O)cc2)oc2cc(O)cc(O)c12 [KAE, kaempferol] | FALSE

hey, is Vmax for this one >= 0.5 mU/min? C=CCSSSCC=C [DATS, diallyl trisulfide]
FALSE

Please check the record C/C=C/[S@+]([O-])C[C@H](N)C(=O)O [IA, isoalliin] and state if its Vmax is at or above 0.5 mU/min.
TRUE

---

- target.of.assay: APN (Homo sapiens, UniProt P15144)
- Construct: purchased Sigma-Aldrich
- protocol.description: Kinetic assay (Lineweaver–Burk) on APN
- Assay type: biochemical
- particulars: APN treated with compound 5 mM
measurement.name: Kcat (s⁻¹)
Provide only the numeric value, understood in s⁻¹.

C[S@+]([O-])C[C@H](N)C(=O)O | 246.8
C=CCSSSCC=C [DATS, diallyl trisulfide] | 309.2
C=CCSSCC=C [DADS, diallyl disulfide] | 368.8

Dear colleague, I am looking for the recorded Kcat of the following compound: `O=c1c(O)c(-c2ccc(O)cc2)oc2cc(O)cc(O)c12`
308.0

Reported Kcat, compound `C/C=C/[S@+]([O-])C[C@H](N)C(=O)O` : ____
298.9

What value of Kcat has been recorded for this entry: `O=c1c(O)c(-c2ccc(O)c(O)c2)oc2cc(O)cc(O)c12`
244.1

---

- target.of.assay: APN (Homo sapiens)
- Construct: purchased Sigma-Aldrich
- protocol.description: Kinetic assay (Lineweaver–Burk) on APN
- Assay type: biochemical
- particulars: APN treated with compound 2 mM
measurement.name: Vmax
Note to self: number, then unit, no commentary.

What Vmax value was documented for this compound, `O=c1c(O)c(-c2ccc(O)c(O)c2)oc2cc(O)cc(O)c12` ?
0.255 ± 0.006 mU/min

---

// Ki lookup, one value per entry
- target.of.assay: APN (Homo sapiens)
- Construct: purchased Sigma-Aldrich
- protocol.description: Kinetic assay (Lineweaver–Burk) on APN
- Type: biochemical
- particulars: APN; calculated by method of ref 27; read-out: Kiv
The figure you give is taken to be in mM; do not add the unit.

C[S@+]([O-])C[C@H](N)C(=O)O | 12.6
O=c1c(O)c(-c2ccc(O)c(O)c2)oc2cc(O)cc(O)c12 | 11.8
C=CCSSSCC=C [DATS, diallyl trisulfide] | 26.9
C/C=C/[S@+]([O-])C[C@H](N)C(=O)O | 23.7

Now, please, on to the next compound.
Recorded Ki for `O=c1c(O)c(-c2ccc(O)cc2)oc2cc(O)cc(O)c12` , please?
21.7
